- Tested on: monoclonal antibody MV-002
- assay-info: In vitro binding assay (ELISA) of mimotopes to parental antibody
- Design: species or system mice
- protocol-conditions: peptide coupled to BSA bound to ELISA plates (1 μM); parental antibody MV-002
- Protocol: 1. In Vitro Binding Assay (ELISA) Peptides derived from Phage Display as well as variants thereof were coupled to BSA and bound to ELISA plates (1 μM; as indicated in the respective figures) and subsequently incubated with the monoclonal antibody that was used for the screening procedure to analyse binding capacity of identified peptides.
Ends that are not written are not given here.
What Binding Capacity (binding code; OD halfmax 1:X, dilution factor of the parental AB) was measured for each of the following?

Q: Look up Binding Capacity (binding code; OD halfmax 1:X, dilution factor of the parental AB): GELWFPC [p4673, MV-002 mimotope peptide]
A: 3 (strong binding :>320000)

Q: Then what about the substance SHTRLYFC [p4403, MV-002 mimotope peptide] ?
A: 1 (weak binding :<40000)

Q: Then what about the substance SGEIYFERC [p4805, MV-002 mimotope peptide] ?
A: 1 (weak binding :<40000)

Q: Then what about the substance GTLIFHHC [p4695, MV-002 mimotope peptide] ?
A: 2 (medium binding :40000-320000)

Q: Then what about the substance GQIWFISC [p4666, MV-002 mimotope peptide] ?
A: 1 (weak binding :<40000)

Q: Then what about the substance HMRLFFNC [p4670, MV-002 mimotope peptide] ?
A: 3 (strong binding :>320000)

Q: Then what about the substance Ac-GEIYFERC [p4804, MV-002 mimotope peptide, N-terminally acetylated] ?
A: 2 (medium binding :40000-320000)

Q: Then what about the substance SHQRLWFC [p4674, MV-002 mimotope peptide] ?
A: 3 (strong binding :>320000)

Q: Then what about the substance GSLFFWPC [p4688, MV-002 mimotope peptide] ?
A: 2 (medium binding :40000-320000)

Q: Then what about the substance GQIKFAQC [p4694, MV-002 mimotope peptide] ?
A: 3 (strong binding :>320000)

Q: Then what about the substance THQRLWFC [p4693, MV-002 mimotope peptide] ?
A: 3 (strong binding :>320000)

Q: Then what about the substance GEIRFALC [p4678, MV-002 mimotope peptide] ?
A: 3 (strong binding :>320000)

Q: Then what about the substance SGEYVFHC [p4404, MV-002 mimotope peptide] ?
A: 1 (weak binding :<40000)

Q: Then what about the substance HQKMIFAC [p4675, MV-002 mimotope peptide; used as KLH conjugate vaccine in Tg2576 mice] ?
A: 3 (strong binding :>320000)

Q: Then what about the substance SGQIWFRC [p4414, MV-002 mimotope peptide] ?
A: 1 (weak binding :<40000)

Q: Then what about the substance GELFFPKC [p4685, MV-002 mimotope peptide] ?
A: 3 (strong binding :>320000)

Q: Then what about the substance GQLKFPFC [p4690, MV-002 mimotope peptide] ?
A: 3 (strong binding :>320000)

Q: Then what about the substance AGEIYFERC [p4806, MV-002 mimotope peptide] ?
A: 1 (weak binding :<40000)

Q: Then what about the substance GEIYFERC [p4681, MV-002 mimotope peptide] ?
A: 3 (strong binding :>320000)

Q: Then what about the substance GMIVFPHC [p4679, MV-002 mimotope peptide] ?
A: 3 (strong binding :>320000)

Q: Then what about the substance QLPLFVLC [p4700, MV-002 mimotope peptide] ?
A: 1 (weak binding :<40000)

Q: Then what about the substance AIPLFVMC [p4682, MV-002 mimotope peptide] ?
A: 1 (weak binding :<40000)

Q: Then what about the substance KLPLFVMC [p4691, MV-002 mimotope peptide] ?
A: 1 (weak binding :<40000)

Q: Then what about the substance GELYFRAC [p4677, MV-002 mimotope peptide] ?
A: 3 (strong binding :>320000)

Q: Then what about the substance HQKMIFC [p4794, MV-002 mimotope peptide] ?
A: 2 (medium binding :40000-320000)

Q: Then what about the substance GEIRFGSC [p4696, MV-002 mimotope peptide] ?
A: 3 (strong binding :>320000)

Q: Then what about the substance GEIKFDHC [p4698, MV-002 mimotope peptide] ?
A: 3 (strong binding :>320000)

Q: Then what about the substance SGEIHFNC [p4415, MV-002 mimotope peptide] ?
A: 1 (weak binding :<40000)

Q: Then what about the substance GQILFPVC [p4684, MV-002 mimotope peptide] ?
A: 3 (strong binding :>320000)

Q: Then what about the substance HMRMYFEC [p4687, MV-002 mimotope peptide] ?
A: 3 (strong binding :>320000)

Q: Then what about the substance GELFFEKC [p4795, MV-002 mimotope peptide] ?
A: 2 (medium binding :40000-320000)

Q: Then what about the substance GEIRFELC [p4796, MV-002 mimotope peptide] ?
A: 2 (medium binding :40000-320000)

Q: Then what about the substance GDLKFPLC [p4683, MV-002 mimotope peptide] ?
A: 3 (strong binding :>320000)

Q: Then what about the substance GQIMFPRC [p4686, MV-002 mimotope peptide] ?
A: 3 (strong binding :>320000)

Q: Then what about the substance GEILFGMC [p4689, MV-002 mimotope peptide] ?
A: 3 (strong binding :>320000)

Q: Then what about the substance GEIQFGAC [p4699, MV-002 mimotope peptide] ?
A: 3 (strong binding :>320000)

Q: Then what about the substance GQIQFPLC [p4697, MV-002 mimotope peptide] ?
A: 3 (strong binding :>320000)

Q: Then what about the substance GEIWFEGC [p4680, MV-002 mimotope peptide] ?
A: 3 (strong binding :>320000)

Q: Then what about the substance GEMQFFIC [p4676, MV-002 mimotope peptide] ?
A: 3 (strong binding :>320000)

Q: Then what about the substance GTIFFRDC [p4692, MV-002 mimotope peptide] ?
A: 1 (weak binding :<40000)

Q: Then what about the substance GELQFPPC [p4672, MV-002 mimotope peptide] ?
A: 3 (strong binding :>320000)

Q: Then what about the substance CGEIYFER [p4807, MV-002 mimotope peptide] ?
A: 1 (weak binding :<40000)

Q: Then what about the substance GEMWFALC [p4671, MV-002 mimotope peptide] ?
A: 3 (strong binding :>320000)

Q: Then what about the substance GQIIFQSC [p4668, MV-002 mimotope peptide] ?
A: 2 (medium binding :40000-320000)

Q: Then what about the substance NDAKIVFC [p4667, MV-002 mimotope peptide] ?
A: 3 (strong binding :>320000)

Q: Then what about the substance SGQLKFPC [p4413, MV-002 mimotope peptide] ?
A: 1 (weak binding :<40000)

Q: Then what about the substance GQIRFDHC [p4669, MV-002 mimotope peptide] ?
A: 3 (strong binding :>320000)
